Assay: Permeability of compound by PAMPA assay
Format: ADME
assay-endpoint: log(permeability)

> print(dat)
                                    compound  reported.result
 1  NCCOc1cc(-c2cccc(C(=O)Nc3ccccc3CC(=O)O)c2)ccc1Cl             -5.4
 2  O=C(O)Cc1ccccc1NC(=O)c1cccc(-c2ccc(Cl)c(OC3CCNC3)c2)c1 (configuration not stated)             -5.3
 3  O=C(O)Cc1ccccc1NC(=O)c1cccc(-c2ccc(Cl)c(O[C@@H]3CCCNC3)c2)c1F             -5.3
 4  O=C(O)Cc1ccccc1NC(=O)c1cccc(-c2ccc(Cl)c(O[C@@H]3CCCNC3)c2F)c1               -5
 5  O=C(O)Cc1cc(F)ccc1NC(=O)c1cccc(-c2ccc(Cl)c(O[C@@H]3CCCNC3)c2F)c1             -4.9
 6  O=C(O)Cc1ccccc1NC(=O)c1cccc(-c2ccc(Cl)c(OC3CCCNC3)c2)c1 (configuration not stated)             -4.4
 7  O=C(O)Cc1cc(F)ccc1NC(=O)c1cccc(-c2cc(O[C@@H]3CCCNC3)c(Cl)cc2F)c1             -4.4
 8  O=C(O)Cc1ccccc1NC(=O)c1cccc(-c2ccc(Cl)cc2)c1F             -3.6
 9  O=C(Nc1ccccc1C(=O)O)c1cccc(-c2ccc(Cl)cc2)c1             -3.7
10  O=C(O)CC(NC(=O)c1cccc(-c2ccc(Cl)cc2)c1)c1cccnc1 (configuration not stated)             -5.3
11  O=C(O)Cc1cc(F)ccc1NC(=O)c1cccc(-c2cc(O[C@@H]3CCCNC3)c(Cl)cc2F)c1F             -5.1
